Values were extracted from patent US20220220152A1.

In this section we review reported IC50 values for a set of molecules.
- tested-on: XIAP-BIR3 (Homo sapiens)
- Construct: XIAP-BIR3
- Sequence (P98170 241-356 limits assumed): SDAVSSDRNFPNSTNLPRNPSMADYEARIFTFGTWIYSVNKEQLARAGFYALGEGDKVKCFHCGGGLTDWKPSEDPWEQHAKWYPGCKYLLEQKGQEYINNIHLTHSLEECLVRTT
- assay: XIAP-BIR3 fluorescence polarization binding assay
- assay-context: FP, probe AbuRPFK-5FAM (SM5F) 5 nM, XIAP-BIR3 40 nM, 60 min at 25° C.

CN[C@@H](C)C(=O)N[C@@H](C)C(=O)N1CCC[C@H]1C(=O)N[C@@H]1CCOc2c(-c3cccc4c3OCC[C@H]4NC(=O)[C@@H]3CCCN3C(=O)[C@H](C)NC(=O)[C@H](C)NC)cccc21 [Compound V-A]: 100 to 1000 nM

Turning now to a further molecule:
## Input Look up IC50 of CN[C@@H](C)C(=O)N[C@@H](C)C(=O)N1CCC[C@H]1C(=O)N[C@@H]1CCCc2c(-c3ccc(-c4cccc5c4CCC[C@H]5NC(=O)[C@@H]4CCCN4C(=O)[C@H](C)NC(=O)[C@H](C)NC)cc3)cccc21 [Compound III-H] and report it.
## Output 100 to 1000 nM
